- assayedSystem: E. coli SPase (Escherichia coli, UniProt P00803)
- Construct: Full length His-tagged E. coli and S. aureus SPase proteins were expressed in E. coli BL21; His tag; made in house; host or cells: E. coli BL21 (DE3)
- Sequence (P00803 whole entry): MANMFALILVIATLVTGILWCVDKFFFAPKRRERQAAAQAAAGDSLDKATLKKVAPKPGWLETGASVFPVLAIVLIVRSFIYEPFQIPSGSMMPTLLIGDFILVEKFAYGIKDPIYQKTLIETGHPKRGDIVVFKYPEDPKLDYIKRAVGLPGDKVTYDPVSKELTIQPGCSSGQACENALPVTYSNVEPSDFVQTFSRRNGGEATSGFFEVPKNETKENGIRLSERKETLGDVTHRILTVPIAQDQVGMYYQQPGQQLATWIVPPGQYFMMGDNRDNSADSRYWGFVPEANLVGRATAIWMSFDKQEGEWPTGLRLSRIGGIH
- protocolText: SPase enzyme inhibition assay, fluorogenic peptide substrate, E. coli
- Format: biochemical
- conditionSummary: 3 nM E. coli SPase, 20 μM substrate, 10 minutes pre-incubation, room temperature; read-out: IC 50 (nM) E. coli
Positions of bridges follow the written chain, without caps; N, C: chain ends. Non-standard residues stand in square brackets, D forms with d. Residues, ends and D or L forms follow the SMILES beside them. *: point of attachment. boroAla((+)-pinanediol) = C[C@H](N*)B1O[C@@H]2C[C@@H]3C[C@@H](C3(C)C)[C@]2(C)O1; Biphenylcarbonyl(4'-Bu) = CCCCc1ccc(-c2ccc(C(=O)*)cc2)cc1; Aad = N[C@@H](CCCC(=O)O)C(=O)O
So I've got a bunch of compounds here, and I need their IC50 values.
Dear colleague, please return just the value in nM, with no unit written.

QUERY: What IC50 value was documented for this compound, CCCCCCCCCCCCCC(=O)N[C@@H](CCCCN)C(=O)N(C)[C@@H]1C(=O)N[C@@H](C)C(=O)N[C@H](C(=O)O)Cc2ccc(O)c(c2)-c2cc1ccc2O [Compound 111] ?
RESULT: 2.2

QUERY: Item: CCCCc1ccc(-c2ccc(C(=O)NC[C@@H](N)C(=O)N[C@@H](CCCCN)C(=O)N(C)[C@@H]3C(=O)N[C@@H](C)C(=O)N[C@H](C(=O)O)Cc4ccc(O)c(c4)-c4cc3ccc4O)cc2)cc1 [Compound 109]
RESULT: 11

QUERY: Item: CCCCCCCCCCCCCC(=O)N[C@@H](CCCCN)C(=O)N(C)[C@@H]1C(=O)N[C@@H](C)C(=O)N[C@H](C(=O)N[C@@H](C)B(O)O)Cc2ccc(O)c(c2)-c2cc1ccc2O [Compound 119]
RESULT: 8.6

QUERY: Item: CCCCCCCC(=O)NCCC(=O)N[C@@H](CCCCN)C(=O)N(C)[C@@H]1C(=O)N[C@@H](C)C(=O)N[C@H](C(=O)N[C@@H](C)C(=O)N2CCC[C@H]2C(N)=O)Cc2ccc(O)c(c2)-c2cc1ccc2O [Compound 131]
RESULT: 180

QUERY: Item: CCCCc1ccc(-c2ccc(C(=O)N[C@@H](CCCCN)C(=O)N[C@H]3CCCC(=O)NCCCC[C@@H](C(=O)N[C@@H](C)B4O[C@@H]5C[C@@H]6C[C@@H](C6(C)C)[C@]5(C)O4)NC(=O)[C@H](C)NC3=O)cc2)cc1 [Compound 203] ({Biphenylcarbonyl(4'-Bu)}-K[Aad]AK-{boroAla((+)-pinanediol)}; lactam 2-4)
RESULT: 8.9

QUERY: Item: CCCCc1ccc(-c2ccc(C(=O)N[C@@H](CCCCN)C(=O)N[C@H]3CCC(=O)NCCCC[C@@H](C(=O)N[C@@H](C)B4O[C@@H]5C[C@@H]6C[C@@H](C6(C)C)[C@]5(C)O4)NC(=O)[C@H](C)NC3=O)cc2)cc1 [Compound 201] ({Biphenylcarbonyl(4'-Bu)}-KEAK-{boroAla((+)-pinanediol)}; lactam 2-4)
RESULT: 15

QUERY: Item: CCCCc1ccc(-c2ccc(C(=O)NC[C@@H](C)C(=O)N[C@@H](CCCCN)C(=O)N(C)[C@@H]3C(=O)N[C@@H](C)C(=O)N[C@H](C(=O)N[C@@H](C)B4OC5C[C@@H]6C[C@@H](C6(C)C)[C@]5(C)O4)Cc4ccc(O)c(c4)-c4cc3ccc4O)cc2)cc1 (some centres unmarked) [Compound 120]
RESULT: 18

QUERY: Item: CCCCCCCC(=O)NCCC(=O)N[C@@H](CCCCN)C(=O)N(C)[C@@H]1C(=O)N[C@@H](C)C(=O)N[C@H](C(=O)O)Cc2ccc(O)c(c2)-c2cc1ccc2O [Compound 122]
RESULT: 27
